Origin of values: PubChem BioAssay AID1845199

- System: 556581-035-R-J1 tumor spheroid viability, % test/control
- assay.info: Anticancer human tumor 556581-035-R-J1 patient-derived ovarian carcinoma cell line growth inhibition
- applied.conditions: curve of first compound; second compound 94.9 pM; spheroids with HUVEC and MSC
parameter: IC50

molecule	IC50
CC1COCCN1c1cc(-c2ccnn2C)c2ccnc(-c3ccn[nH]3)c2n1 (stereo not given) + COc1cc2c(cc1O)CCNC21CSC2c3c(OC(C)=O)c(C)c4c(c3C(COC1=O)N1C(O)C3Cc5cc(C)c(OC)c(O)c5C(C21)N3C)OCO4	0.426 µM

Note to self: IC50 recorded for Cc1cc(C)c(CNC(=O)c2cc(-c3ccc(CN4CCOCC4)cc3)cc3c2cnn3C2CCCC2)c(=O)[nH]1 + COc1cc2c(cc1O)CCNC21CSC2c3c(OC(C)=O)c(C)c4c(c3C(COC1=O)N1C(O)C3Cc5cc(C)c(OC)c(O)c5C(C21)N3C)OCO4 was > 10 µM

Kindly note the recorded IC50 for CC(C)n1c(=O)n(C)c2cnc3cc(F)c(-c4ccc(OCCCN5CCCCC5)nc4)cc3c21 + COc1cc2c(cc1O)CCNC21CSC2c3c(OC(C)=O)c(C)c4c(c3C(COC1=O)N1C(O)C3Cc5cc(C)c(OC)c(O)c5C(C21)N3C)OCO4 , which is > 10 µM

The molecule identified as CNCc1ccc(-c2cc(-c3nc(-c4ccc(S(=O)(=O)C(C)C)cc4)cnc3N)on2)cc1 + COc1cc2c(cc1O)CCNC21CSC2c3c(OC(C)=O)c(C)c4c(c3C(COC1=O)N1C(O)C3Cc5cc(C)c(OC)c(O)c5C(C21)N3C)OCO4 registered its IC50 at 1.24 µM

Briefly, IC50 measured for COc1ccc([C@@H](O)c2cc(-c3ncnc4cc(N5CCOCC5)ccc34)c(F)cc2Cl)nn1 + COc1cc2c(cc1O)CCNC21CSC2c3c(OC(C)=O)c(C)c4c(c3C(COC1=O)N1C(O)C3Cc5cc(C)c(OC)c(O)c5C(C21)N3C)OCO4 : 1.96 µM

Quick note, IC50 for O=C(c1cc(Cc2n[nH]c(=O)c3ccccc23)ccc1F)N1CCN(C(=O)C2CC2)CC1 + COc1cc2c(cc1O)CCNC21CSC2c3c(OC(C)=O)c(C)c4c(c3C(COC1=O)N1C(O)C3Cc5cc(C)c(OC)c(O)c5C(C21)N3C)OCO4 landed at > 30 µM

The measured IC50 associated with COc1cc(C)[nH]c(=O)c1CN1CCc2c(Cl)cc(C(OC)C3COC3)c(Cl)c2C1=O (stereo not given) + COc1cc2c(cc1O)CCNC21CSC2c3c(OC(C)=O)c(C)c4c(c3C(COC1=O)N1C(O)C3Cc5cc(C)c(OC)c(O)c5C(C21)N3C)OCO4 reads > 10 µM

----------
- System: 556581-035-R-J1 tumor spheroid viability, % test/control
- assay.info: Anticancer human tumor 556581-035-R-J1 cell line growth inhibition;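 also: spheroids exposed to compounds for 7 days before viability read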
- applied.conditions: second compound 30 pM; first compound 0.0949 µM; stronger effect = lower value; spheroids with HUVEC and MSC
parameter: viability, T/C (%)
Please reply with the bare figure in % and do not write the unit itself.

Below, 3 molecules whose answers are already recorded.
molecule	viability, T/C / %
CNCc1ccc(-c2cc(-c3nc(-c4ccc(S(=O)(=O)C(C)C)cc4)cnc3N)on2)cc1 + COc1cc2c(cc1O)CCNC21CSC2c3c(OC(C)=O)c(C)c4c(c3C(COC1=O)N1C(O)C3Cc5cc(C)c(OC)c(O)c5C(C21)N3C)OCO4	108
Cc1sc2c(c1C)C(c1ccc(Cl)cc1)=NC(CC(=O)Nc1ccc(O)cc1)c1nnc(C)n1-2 (centres undefined) + COc1cc2c(cc1O)CCNC21CSC2c3c(OC(C)=O)c(C)c4c(c3C(COC1=O)N1C(O)C3Cc5cc(C)c(OC)c(O)c5C(C21)N3C)OCO4	83.8
Cn1ncnc1[C@H]1c2n[nH]c(=O)c3cc(F)cc(c23)N[C@@H]1c1ccc(F)cc1 + COc1cc2c(cc1O)CCNC21CSC2c3c(OC(C)=O)c(C)c4c(c3C(COC1=O)N1C(O)C3Cc5cc(C)c(OC)c(O)c5C(C21)N3C)OCO4	93.5

So for O=C(c1cc(Cc2n[nH]c(=O)c3ccccc23)ccc1F)N1CCN(C(=O)C2CC2)CC1 + COc1cc2c(cc1O)CCNC21CSC2c3c(OC(C)=O)c(C)c4c(c3C(COC1=O)N1C(O)C3Cc5cc(C)c(OC)c(O)c5C(C21)N3C)OCO4 , the logged viability, T/C turned out to be 104
